I'd appreciate it if you could supply EC50 values for the items below.
# EXPERIMENTAL_SYSTEM: T1, human HER3 protein (extracellular sequence with six histidines at the C-terminal) (human, UniProt P21860 20-643)
# T1 construct: extracellular domain; Made in HEK293 cells; also called Human HER3-His
# T1 sequence (P21860 other isoform, or with tags, fused parts or gaps): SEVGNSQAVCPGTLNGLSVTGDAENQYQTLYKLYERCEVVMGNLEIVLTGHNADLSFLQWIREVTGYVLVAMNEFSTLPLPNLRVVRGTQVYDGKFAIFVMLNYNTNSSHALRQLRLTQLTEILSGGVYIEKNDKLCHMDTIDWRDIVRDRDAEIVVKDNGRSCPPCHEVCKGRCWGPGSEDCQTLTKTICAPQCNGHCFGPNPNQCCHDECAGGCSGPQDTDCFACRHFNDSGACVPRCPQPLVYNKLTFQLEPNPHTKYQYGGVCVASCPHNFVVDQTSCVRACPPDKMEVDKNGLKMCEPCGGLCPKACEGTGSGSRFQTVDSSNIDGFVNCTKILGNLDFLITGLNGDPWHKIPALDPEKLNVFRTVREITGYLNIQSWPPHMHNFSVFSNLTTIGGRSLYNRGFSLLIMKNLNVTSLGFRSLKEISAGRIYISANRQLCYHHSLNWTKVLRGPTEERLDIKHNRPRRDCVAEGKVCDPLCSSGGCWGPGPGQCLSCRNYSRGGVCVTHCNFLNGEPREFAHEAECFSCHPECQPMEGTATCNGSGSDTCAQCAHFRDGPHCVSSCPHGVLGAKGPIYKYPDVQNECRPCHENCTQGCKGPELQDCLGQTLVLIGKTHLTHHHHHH
# ASSAY_PROCEDURE: ELISA, coated human HER3 protein, chimeric antibody
Numbers only, in µg/mL.

- 47A3E3 (anti-human HER3 chimeric antibody) (antibody, V domains shown) VH: EVQLQESGPGLVKPSQTLSLTCAISGDSVSSSQSTWNWIRQSPSRGLEWLGRTFYRSRWYNDYALSMKSRITINPDTSKNQFSLQLNPVTPEDTAVYYCARDTYYYGSGGFDYWGQGSRVTVSS VL: DIQMTQSPSTLSASVGDRVTITCRASQSLSRWLAWYQQKPEKAPKLLIYKASSLESGVPSRFSGSGSGTEFTLTISTLQPDDFATYYCQQYKNYYSFGQGTKLEIK: 0.0096
- 100H7D3 (anti-human HER3 chimeric antibody) (antibody, V domains shown) VH: EVQLVESGGGVVLPGRSLRLSCAASGFTFSRNAMHWVRQAPGKGLEWVAVIWHDGSNKYYGDSVKGRFTISRDNSKNTLYLQMDSLTAEDTAVYYCARDRGASDFRGQGTLVTVSS VL: DIQMTQSPSTLSASVGDRVTITCRASQSINNWLAWYQQKPEKAPKLLIYKASSLESGVPSRFSGSGSGTEFTLTISSLQPDDFATYYCQQYNSYSLTFGGGTKVEIK: 0.0131

In the following, a different binder is considered.
Return EC50 for the following binder: 44A4A11 (anti-human HER3 chimeric antibody) (antibody, V domains shown) VH: EVQLLESGGGLVQPGGSLRLSCAASGFTFSSYAMNWVRQAPGKGLEWVSSISDSGGSTYYADSVKGRFTISRDNSKNTLYLQMNSLRAEDTAVYYCAKDGGISMVRGVIIEEGYFDLWGRGTLVTSPQ VL: DIQLTQSPSFLSASVGDRVTITCRASQGISSYLAWYQQKPGKAPKLLIYVVSTLQSGVPSRFSGSGSGTEFTLTISSLQPEDFATYYCHQLNSYPLTFGGGTKVEIK
0.0121
